systemTested: UniProt:O76083
readoutKind: log10 of IC50 (log10 of the value in nM)

{"compound": "CC(C)n1ncc2c(=O)[nH]c(SCC(=O)Nc3nnc(Cl)s3)nc21", "systemTested": "UniProt:O76083", "log10 of IC50": 0.48}
{"compound": "CC(Sc1nc2c(cnn2C2CCOCC2)c(=O)[nH]1)C(=O)Nc1nnc(Cl)s1 (centres unmarked)", "systemTested": "UniProt:O76083", "log10 of IC50": -1.00}
{"compound": "CC(Sc1nc2c(cnn2C2CCC(F)(F)CC2)c(=O)[nH]1)C(=O)Nc1nnc(Cl)s1 (centres unmarked)", "systemTested": "UniProt:O76083", "log10 of IC50": -0.52}
{"compound": "CCSc1nnc(NC(=O)CSc2nc3c(cnn3-c3ccccc3)c(=O)[nH]2)s1", "systemTested": "UniProt:O76083", "log10 of IC50": 1.00}
{"compound": "CCc1nnc(NC(=O)CSc2nc3c(cnn3-c3ccccc3)c(=O)[nH]2)s1", "systemTested": "UniProt:O76083", "log10 of IC50": 2.26}
{"compound": "O=C(CSc1nc2c(cnn2C2CCSCC2)c(=O)[nH]1)Nc1nnc(Br)s1", "systemTested": "UniProt:O76083", "log10 of IC50": -0.22}
{"compound": "CCSc1nnc(N(C)C(=O)CSc2nc3c(cnn3-c3ccccc3)c(=O)[nH]2)s1", "systemTested": "UniProt:O76083", "log10 of IC50": 2.67}
{"compound": "Cc1ccc(CSc2nnc(NC(=O)CSc3nc4c(cnn4-c4ccccc4)c(=O)[nH]3)s2)cc1", "systemTested": "UniProt:O76083", "log10 of IC50": 1.18}

* * *

systemTested: PDE9A (Homo sapiens (Human))
Sequence (O76083 whole entry): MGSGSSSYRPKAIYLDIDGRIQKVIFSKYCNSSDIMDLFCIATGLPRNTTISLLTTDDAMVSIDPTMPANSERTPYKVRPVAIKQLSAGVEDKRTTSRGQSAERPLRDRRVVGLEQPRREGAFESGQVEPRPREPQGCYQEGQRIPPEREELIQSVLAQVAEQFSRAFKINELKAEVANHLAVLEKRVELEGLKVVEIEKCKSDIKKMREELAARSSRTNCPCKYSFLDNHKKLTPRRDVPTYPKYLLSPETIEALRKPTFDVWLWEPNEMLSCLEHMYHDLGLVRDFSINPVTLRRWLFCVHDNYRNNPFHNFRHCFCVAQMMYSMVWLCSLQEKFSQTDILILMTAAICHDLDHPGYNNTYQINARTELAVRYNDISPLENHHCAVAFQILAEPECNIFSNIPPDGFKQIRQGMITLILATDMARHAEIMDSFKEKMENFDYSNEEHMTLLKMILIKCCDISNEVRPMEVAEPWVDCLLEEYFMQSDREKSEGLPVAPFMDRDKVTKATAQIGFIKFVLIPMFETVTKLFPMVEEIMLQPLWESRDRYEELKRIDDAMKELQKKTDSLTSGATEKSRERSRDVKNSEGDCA
readoutKind: IC50 (nM)

{"molecule": "O=C(CSc1nc2c(cnn2C2CCSCC2)c(=O)[nH]1)Nc1nnc(Cl)s1 [Example 39]", "readoutKind": "IC50", "measurement": 1}
{"molecule": "O=C(CSc1nc2c(cnn2C2CCOCC2)c(=O)[nH]1)Nc1nnc(Br)s1 [Example 33]", "readoutKind": "IC50", "measurement": 0.4}
{"molecule": "O=C(CSc1nc2c(cnn2-c2ccccc2)c(=O)[nH]1)Nc1nnc(-c2ccccc2)s1 [Example 25]", "readoutKind": "IC50", "measurement": 12}
{"molecule": "Cc1ccc(-c2nnc(NC(=O)C(C)Sc3nc4c(cnn4-c4ccccc4)c(=O)[nH]3)s2)cc1 (centres unmarked) [Example 20]", "readoutKind": "IC50", "measurement": 19}
{"molecule": "Cc1nnc(NC(=O)C(C)Sc2nc3c(cnn3-c3ccccc3)c(=O)[nH]2)s1 (centres unmarked) [Example 10]", "readoutKind": "IC50", "measurement": 150}
{"molecule": "O=C(CSc1nc2c(cnn2C2CCCCC2)c(=O)[nH]1)Nc1nnc(Cl)s1 [Example 42]", "readoutKind": "IC50", "measurement": 1}
{"molecule": "CCSc1nnc(NC(=O)C(Sc2nc3c(cnn3-c3ccccc3)c(=O)[nH]2)c2ccccc2)s1 (centres unmarked) [Example 26]", "readoutKind": "IC50", "measurement": 9}
{"molecule": "CCSc1nnc(NC(=O)CSc2nc3c(cnn3C3CC3)c(=O)[nH]2)s1 [Example 40]", "readoutKind": "IC50", "measurement": 39}
